Target: PDE III (cAMP-specific PDE which is inhibited by cGMP) (Canis lupus familiaris)
Sequence (A0A8I3NYE0 1-1135): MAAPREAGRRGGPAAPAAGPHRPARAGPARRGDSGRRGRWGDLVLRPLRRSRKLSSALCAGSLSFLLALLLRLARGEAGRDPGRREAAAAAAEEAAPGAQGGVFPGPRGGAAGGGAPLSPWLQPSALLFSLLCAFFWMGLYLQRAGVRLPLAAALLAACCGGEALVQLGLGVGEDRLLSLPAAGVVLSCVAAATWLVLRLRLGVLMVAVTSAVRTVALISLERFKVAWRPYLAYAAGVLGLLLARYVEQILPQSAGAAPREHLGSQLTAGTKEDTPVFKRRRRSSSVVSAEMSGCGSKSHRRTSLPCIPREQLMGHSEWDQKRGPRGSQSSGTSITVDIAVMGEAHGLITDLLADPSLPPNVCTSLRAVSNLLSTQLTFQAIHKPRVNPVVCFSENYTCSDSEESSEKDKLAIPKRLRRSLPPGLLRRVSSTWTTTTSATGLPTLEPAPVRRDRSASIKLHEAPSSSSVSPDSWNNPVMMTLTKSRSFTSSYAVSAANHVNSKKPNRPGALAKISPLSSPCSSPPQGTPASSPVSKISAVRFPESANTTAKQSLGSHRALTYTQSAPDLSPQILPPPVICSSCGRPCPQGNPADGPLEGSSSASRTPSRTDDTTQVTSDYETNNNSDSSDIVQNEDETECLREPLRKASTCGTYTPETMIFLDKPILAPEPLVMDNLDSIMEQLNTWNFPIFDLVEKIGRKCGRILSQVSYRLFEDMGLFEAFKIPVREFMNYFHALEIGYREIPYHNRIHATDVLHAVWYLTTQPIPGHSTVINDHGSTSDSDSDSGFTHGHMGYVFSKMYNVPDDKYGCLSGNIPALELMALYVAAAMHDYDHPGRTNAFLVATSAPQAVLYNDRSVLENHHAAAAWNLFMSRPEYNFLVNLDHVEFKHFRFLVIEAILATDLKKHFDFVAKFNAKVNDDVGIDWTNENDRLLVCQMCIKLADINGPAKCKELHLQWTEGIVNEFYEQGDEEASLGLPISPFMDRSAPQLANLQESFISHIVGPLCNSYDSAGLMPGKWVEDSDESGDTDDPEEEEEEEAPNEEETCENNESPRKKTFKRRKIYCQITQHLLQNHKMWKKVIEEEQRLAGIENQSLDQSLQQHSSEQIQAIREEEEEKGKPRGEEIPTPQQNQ
Structures can show the parent of a compound that is named as a salt.
readout_label: pIC50
Please note pIC50 is a logarithmic value: minus log10 of concentration in mol/L. Answer with that number alone.

# pIC50 lookup, item CCn1c(=O)[nH]c2cc3c(NCC4CCCO4)ncnc3cc21 (stereo not shown) [Compound 30, hydrochloride]
5.96
